Molecular target: human uPAR (uPAR-Fc) (Homo sapiens, UniProt Q03405)
Construct: comprising amino acids Leu23-Arg303 according to UniProt entry Q03405.1; purchased R&D Systems 10378-UK-100
Sequence (Q03405 23-303): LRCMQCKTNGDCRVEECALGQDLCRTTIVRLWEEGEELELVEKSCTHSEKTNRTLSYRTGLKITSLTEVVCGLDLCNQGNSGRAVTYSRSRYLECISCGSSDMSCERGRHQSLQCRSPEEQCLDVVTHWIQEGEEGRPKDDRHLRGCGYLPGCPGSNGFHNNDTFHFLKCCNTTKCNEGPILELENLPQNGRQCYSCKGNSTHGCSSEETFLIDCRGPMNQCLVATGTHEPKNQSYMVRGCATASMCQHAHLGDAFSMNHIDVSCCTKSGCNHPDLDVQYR
Test: Surface plasmon resonance (SPR) assay, single cycle kinetics
Format: binding
Conditions: pKD category for uPAR SPR activity assay; uPAR-Fc on Protein A-Chip, 25°C; read-out: pKD CAT (converted)
Where a SMILES comes first, the peptide text is derived from it. Bridges are numbered along the chain shown (N, C = ends). [ ]: non-standard residue; d: D form. The star is where a group is joined. Acetyl(4-DOTA-piperazinyl) = O=C(O)CN1CCN(CC(=O)O)CCN(CC(=O)N2CCN(CC(=O)*)CC2)CCN(CC(=O)O)CC1; Pro(cis-4-F) = O=C(O)[C@@H]1C[C@H](F)CN1; Dopa = N[C@@H](Cc1ccc(O)c(O)c1)C(=O)O; Hyp = O=C(O)[C@@H]1C[C@@H](O)CN1; Pentanoyl(4-Me) = CC(C)CCC(=O)*; Cit = NC(=O)NCCC[C@H](N)C(=O)O; Butoxycarbonyl = CCCCOC(=O)*; Nva = CCC[C@H](N)C(=O)O

{"COMPOUND": "CCCCOC(=O)N[C@H]1CSSC[C@@H](C(N)=O)NC(=O)[C@H](CCC)NC(=O)[C@H]([C@@H](C)CC)NC(=O)[C@@H]2C[C@@H](O)CN2C(=O)[C@@H]2C[C@H](F)CN2C(=O)[C@H](Cc2ccccc2)NC(=O)[C@H](Cc2ccc(O)c(O)c2)NC(=O)[C@H](CCCCNC(=O)CN2CCN(C(=O)CN3CCN(CC(=O)O)CCN(CC(=O)O)CCN(CC(=O)O)CC3)CC2)NC(=O)[C@H]([C@@H](C)O)NC1=O [UPAR-199] (Butoxycarbonyl-CTK(Acetyl(4-DOTA-piperazinyl))[Dopa]F[Pro(cis-4-F)][Hyp]I[Nva]C-NH2; disulfide 1-10)", "TARGET_SYSTEM": "human uPAR (uPAR-Fc) (Homo sapiens, UniProt Q03405)", "Kd": "< 1.58 nM"}
{"COMPOUND": "CCC[C@@H]1NC(=O)[C@@H](C)NC(=O)[C@@H]2CCCN2C(=O)[C@H](Cc2ccccc2)NC(=O)[C@H](Cc2ccc(O)cc2)NC(=O)[C@H](CCC(N)=O)NC(=O)[C@H](CCCNC(N)=O)NC(=O)[C@@H](NC(=O)CCC(C)C)CSSC[C@@H](C(N)=O)NC(=O)[C@H](CC(C)C)NC1=O [UPAR-136] ({Pentanoyl(4-Me)}-C[Cit]QYFP[dA][Nva]LC-NH2; disulfide 1-10)", "TARGET_SYSTEM": "human uPAR (uPAR-Fc) (Homo sapiens, UniProt Q03405)", "Kd": "1.58 to 10 nM"}

* * *

# Kd annotations
Biological target: human uPAR (uPAR-Fc) (Homo sapiens, UniProt Q03405)
Construct: comprising amino acids Leu23-Arg303 according to UniProt entry Q03405.1; purchased R&D Systems 10378-UK-100
Assay: Surface plasmon resonance (SPR) assay, single cycle kinetics
Type: binding
Details: pKD category for uPAR SPR activity assay; uPAR-Fc on Protein A-Chip, 25°C; read-out: pKD CAT (converted)
Where a SMILES comes first, the peptide text is derived from it. Bridges are numbered along the chain shown (N, C = ends). [ ]: non-standard residue; d: D form. The star is where a group is joined. DOTA = O=C(O)CN1CCN(CC(=O)O)CCN(CC(=O)*)CCN(CC(=O)O)CC1; Pro(trans-4-F) = O=C(O)[C@@H]1C[C@@H](F)CN1; Cit = NC(=O)NCCC[C@H](N)C(=O)O; Nva = CCC[C@H](N)C(=O)O; Pentanoyl = CCCCC(=O)*
MEASURED_QUANTITY: Kd

{"COMPOUND": "CCCCC(=O)N[C@H]1CSSC[C@@H](C(N)=O)NC(=O)[C@H](CCC)NC(=O)[C@H]([C@@H](C)CC)NC(=O)[C@@H]2C[C@@H](F)CN2C(=O)[C@@H]2CCCN2C(=O)[C@H](Cc2ccccc2)NC(=O)[C@H](Cc2ccc(O)cc2)NC(=O)[C@H](CCCCNC(=O)CN2CCN(CC(=O)O)CCN(CC(=O)O)CCN(CC(=O)O)CC2)NC(=O)[C@H](CCCNC(N)=O)NC1=O [UPAR-246] (Pentanoyl-C[Cit]K(DOTA)YFP[Pro(trans-4-F)]I[Nva]C-NH2; disulfide 1-10)", "ASSAY_RESULT": "< 1.58 nM"}
{"COMPOUND": "CC[C@H](C)[C@@H]1NC(=O)[C@@H](CCCNC(=N)N)NC(=O)[C@@H]2CCCN2C(=O)[C@H](Cc2ccccc2)NC(=O)[C@H](Cc2ccc(O)cc2)NC(=O)[C@H](CCCCNC(=O)CN2CCN(CC(=O)O)CCN(CC(=O)O)CCN(CC(=O)O)CC2)NC(=O)[C@H](CCCNC(N)=O)NC(=O)[C@@H](NC(=O)[C@H](CC(C)C)NC(=O)[C@H](CC(=O)O)NC(C)=O)CSSC[C@@H](C(N)=O)NC(=O)[C@H](CC(C)C)NC1=O [UPAR-306] (Ac-DLC[Cit]K(DOTA)YFP[dR]ILC-NH2; disulfide 3-12)", "ASSAY_RESULT": "< 1.58 nM"}

* * *

# Kd annotations
Target: human uPAR (uPAR-Fc) (Homo sapiens)
Construct: comprising amino acids Leu23-Arg303 according to UniProt entry Q03405.1; purchased R&D Systems 10378-UK-100
Assay: Surface plasmon resonance (SPR) assay, single cycle kinetics
Format: binding
Details: pKD category for uPAR SPR activity assay; uPAR-Fc on Protein A-Chip, single cycle kinetics, 25°C; read-out: pKD CAT (converted)
Where a SMILES comes first, the peptide text is derived from it. Bridges are numbered along the chain shown (N, C = ends). [ ]: non-standard residue; d: D form. The star is where a group is joined. DOTA = O=C(O)CN1CCN(CC(=O)O)CCN(CC(=O)*)CCN(CC(=O)O)CC1; Hyp = O=C(O)[C@@H]1C[C@@H](O)CN1; αMeF = C[C@](N)(Cc1ccccc1)C(=O)O; Pentanoyl(4-Me) = CC(C)CCC(=O)*; Cit = NC(=O)NCCC[C@H](N)C(=O)O; NMeL = CN[C@@H](CC(C)C)C(=O)O; Thz = O=C(O)[C@@H]1CSCN1; Nva = CCC[C@H](N)C(=O)O; Pentanoyl = CCCCC(=O)*; AEEA = NCCOCCOCC(=O)O; βAla = NCCC(=O)O

{"COMPOUND": "CCC[C@@H]1NC(=O)[C@H]([C@@H](C)CC)NC(=O)[C@@H]2C[C@@H](O)CN2C(=O)[C@@H]2CCCN2C(=O)[C@H](Cc2ccccc2)NC(=O)[C@H](Cc2ccc(O)cc2)NC(=O)[C@H](CCC(N)=O)NC(=O)[C@H](CCCNC(=N)N)NC(=O)[C@@H](NC(=O)[C@H](CC(C)C)N(C)C(C)=O)CSSC[C@@H](C(N)=O)NC1=O [UPAR-483] (Ac-[NMeL]CRQYFP[Hyp]I[Nva]C-NH2; disulfide 2-11)", "Kd": "< 1.58 nM"}
{"COMPOUND": "CCCCC(=O)N[C@H]1CSSC[C@@H](C(=O)NCCC(N)=O)NC(=O)[C@H](CCC)NC(=O)[C@H]([C@@H](C)CC)NC(=O)[C@@H]2C[C@@H](O)CN2C(=O)[C@@H]2CCCN2C(=O)[C@H](Cc2ccccc2)NC(=O)[C@H](Cc2ccc(O)cc2)NC(=O)[C@H](CCC(N)=O)NC(=O)[C@H](CCCNC(N)=O)NC1=O [UPAR-353] (Pentanoyl-C[Cit]QYFP[Hyp]I[Nva]C[βAla]-NH2; disulfide 1-10)", "Kd": "1.58 to 10 nM"}
{"COMPOUND": "CCCCC(=O)N[C@H]1CSSC[C@@H](C(N)=O)NC(=O)[C@H](CCC)NC(=O)[C@H]([C@@H](C)CC)NC(=O)[C@@H]2C[C@@H](O)CN2C(=O)[C@@H]2CCCN2C(=O)[C@H](Cc2ccccc2)NC(=O)[C@](C)(Cc2ccccc2)NC(=O)[C@H](CCC(N)=O)NC(=O)[C@H](CCCNC(=N)N)NC1=O [UPAR-478] (Pentanoyl-CRQ[αMeF]FP[Hyp]I[Nva]C-NH2; disulfide 1-10)", "Kd": "10 to 100 nM"}
{"COMPOUND": "CCCCC(=O)N[C@H]1CSSC[C@@H](C(N)=O)NC(=O)[C@H](CCC)NC(=O)[C@H]([C@@H](C)CC)NC(=O)[C@@H]2C[C@@H](O)CN2C(=O)[C@@H]2CCCN2C(=O)[C@H](Cc2ccccc2)NC(=O)[C@H](Cc2ccc(O)cc2)NC(=O)[C@H](CCCCN)NC(=O)[C@H](CCCNC(=N)N)NC1=O [UPAR-448] (Pentanoyl-CRKYFP[Hyp]I[Nva]C-NH2; disulfide 1-10)", "Kd": "< 1.58 nM"}
{"COMPOUND": "CC[C@H](C)[C@@H]1NC(=O)[C@@H](C)NC(=O)[C@@H]2CCCN2C(=O)[C@H](Cc2ccccc2)NC(=O)[C@H](Cc2ccc(O)cc2)NC(=O)[C@H](CCC(N)=O)NC(=O)[C@H](CCCNC(=N)N)NC(=O)[C@@H](NC(=O)CCC(C)C)CSSC[C@@H](C(=O)NCCOCCOCC(=O)N[C@@H](CCCCNC(=O)CN2CCN(CC(=O)O)CCN(CC(=O)O)CCN(CC(=O)O)CC2)C(N)=O)NC(=O)[C@H](CC(C)C)NC1=O [UPAR-449] ({Pentanoyl(4-Me)}-CRQYFP[dA]ILC[AEEA]K(DOTA)-NH2; disulfide 1-10)", "Kd": "1.58 to 10 nM"}
{"COMPOUND": "CC[C@H](C)[C@@H]1NC(=O)[C@@H](C)NC(=O)[C@@H]2CSCN2C(=O)[C@H](Cc2ccccc2)NC(=O)[C@H](Cc2ccc(O)cc2)NC(=O)[C@H](CCC(N)=O)NC(=O)[C@H](CCCNC(N)=O)NC(=O)[C@@H](NC(=O)CCC(C)C)CSSC[C@@H](C(N)=O)NC(=O)[C@H](CC(C)C)NC1=O [UPAR-375] ({Pentanoyl(4-Me)}-C[Cit]QYF[Thz][dA]ILC-NH2; disulfide 1-10)", "Kd": "< 1.58 nM"}
